# Tested on: Aspergillus niger ATCC 16404
# PROTOCOL_SUMMARY: Antifungal susceptibility study (1), broth microdilution MIC
# Type: cell-based
# STUDY_CONDITIONS: lowest concentration preventing any visible growth, read at 48 hours, 35° C., RPMI 1640 pH 7.0
MEASURED_METRIC: MIC Aspergillus niger ATCC 16404 (µg/mL)
Provide only the numeric value, understood in µg/mL.

1) CC1O[C@@H](O[C@H]2/C=C/C=C/C=C/C=C/C=C/C=C/C=C/[C@H](C)[C@@H](O)[C@@H](C)[C@H](C)OC(=O)C[C@H](O)C[C@H](O)C[C@H](O)CC[C@@H](O)[C@H](O)C[C@]3(O)C[C@H](O)[C@@H](C(=O)O)[C@H](C2)O3)[C@H](O)C(NC(=O)c2ccc(CN)cc2)[C@@H]1O (some centres unmarked) [Compound 47, N-(4-Aminomethylbenzoyl) S44HP]    4
2) CC1C=CC=CC=CC=CC=CC=CC=CC(OC2OC(C)C(O)C(NC(=O)CN(C)C)C2O)CC2OC(O)(CC(O)C(O)CCC(O)CC(O)CC(O)CC(=O)OC(C)C(C)C1O)CC(O)C2C(=O)NCCCN(C)C (centres unmarked)    1
3) CC1C=CC=CC=CC=CC=CC=CC=CC(OC2OC(C)C(O)C(N)C2O)CC2OC(O)(CC(O)C(O)CCC(O)CC(O)CC(O)CC(=O)OC(C)C(C)C1O)CC(O)C2C.NC(CCC(=O)O)C(=O)O [Compound 29, Compound 1 L-glutamate]    2
4) CC1C=CC=CC=CC=CC=CC=CC=CC(OC2OC(C)C(O)C(NCCCN)C2O)CC2OC(O)(CC(O)C(O)CCC(O)CC(O)CC(O)CC(=O)OC(C)C(C)C1O)CC(O)C2C(=O)O (centres unmarked)    4
5) COC(=O)C(CO)NC(=O)C1C(O)CC2(O)CC(O)C(O)CCC(O)CC(O)CC(O)CC(=O)OC(C)C(C)C(O)C(C)C=CC=CC=CC=CC=CC=CC=CC(OC3OC(C)C(O)C(N)C3O)CC1O2 (centres unmarked) [Compound 13]    1
6) CC1C=CC=CC=CC=CC=CC=CC=CC(OC2OC(C)C(O)C(NCC3(O)OCC(O)C(O)C3O)C2O)CC2OC(O)(CC(O)C(O)CCC(O)CC(O)CC(O)CC(=O)OC(C)C(C)C1O)CC(O)C2C(=O)NCCCO (centres unmarked)    4
7) CC1O[C@@H](O[C@H]2/C=C/C=C/C=C/C=C/C=C/C=C/C=C/[C@H](C)[C@@H](O)[C@@H](C)[C@H](C)OC(=O)C[C@H](O)C[C@H](O)C[C@H](O)CC[C@@H](O)[C@H](O)C[C@]3(O)C[C@H](O)[C@@H](C)[C@H](C2)O3)[C@H](O)C(N)[C@@H]1O.O=C(O)C(Cl)Cl (some centres unmarked)    2

Now examine the next entry.
[in] MIC Aspergillus niger ATCC 16404 lookup needed for CC1C=CC=CC=CC=CC=CC=CC=CC(OC2OC(C)C(O)C(NC(=O)C(N)CCCCN)C2O)CC2OC(O)(CC(O)C(O)CCC(O)CC(O)CC(O)CC(=O)OC(C)C(C)C1O)CC(O)C2C(=O)NCCCN(C)C [Compound 33, N-L-lysyl S44HP DMAP-Amide] , thanks.
[out] 1

----------
Listed compounds paired with reported MIC Aspergillus niger ATCC 16404
# System: Aspergillus niger ATCC 16404
# PROTOCOL_SUMMARY: Antifungal susceptibility study (1), broth microdilution MIC
# Format: cell-based
# STUDY_CONDITIONS: lowest concentration preventing any visible growth, read at 48 hours, 35° C., RPMI 1640 pH 7.0
# do not omit the unit; it follows the number

1. C[C@@H]1[C@H](O)[C@@H](C)/C=C/C=C/C=C/C=C/C=C/C=C/C=C/[C@H](O[C@@H]2O[C@H](C)[C@@H](O)[C@H](N)[C@@H]2O)C[C@@H]2O[C@](O)(C[C@@H](O)[C@H](O)CC[C@@H](O)C[C@@H](O)C[C@@H](O)CC(=O)O[C@H]1C)C[C@H](O)[C@H]2C(=O)O [Compound S44HP, reference compound]    1 µg/mL
2. CC1O[C@@H](O[C@H]2/C=C/C=C/C=C/C=C/C=C/C=C/C=C/[C@H](C)[C@@H](O)[C@@H](C)[C@H](C)OC(=O)C[C@H](O)C[C@H](O)C[C@H](O)CC[C@@H](O)[C@H](O)C[C@]3(O)C[C@H](O)[C@@H](C)[C@H](C2)O3)[C@H](O)C(NC(=O)[C@@H](N)CCCCN)[C@@H]1O (stereo partly drawn) [Compound 51, N-L-Lysyl-Compound 1]    1 µg/mL

Now examine the next entry.
[in] Form: Entry = CC1C=CC=CC=CC=CC=CC=CC=CC(OC2OC(C)C(O)C(N(CCCN)CCCN)C2O)CC2OC(O)(CC(O)C(O)CCC(O)CC(O)CC(O)CC(=O)OC(C)C(C)C1O)CC(O)C2C(=O)O (stereo not drawn) [Compound 22] | System = Aspergillus niger ATCC 16404 | MIC Aspergillus niger ATCC 16404 = ____
[out] 1 µg/mL

----------
Listed molecules paired with reported MIC Aspergillus niger ATCC 16404
# System: Aspergillus niger ATCC 16404
# PROTOCOL_SUMMARY: Antifungal susceptibility study (1), broth microdilution MIC
# Format: cell-based
# STUDY_CONDITIONS: lowest concentration preventing any visible growth, read at 48 hours, 35° C., RPMI 1640 pH 7.0
Provide only the numeric value, understood in µg/mL.

Known MIC Aspergillus niger ATCC 16404 results, listed for orientation:
1) CC1O[C@@H](O[C@H]2/C=C/C=C/C=C/C=C/C=C/C=C/C=C/[C@H](C)[C@@H](O)[C@@H](C)[C@H](C)OC(=O)C[C@H](O)C[C@H](O)C[C@H](O)CC[C@@H](O)[C@H](O)C[C@]3(O)C[C@H](O)[C@@H](C(=O)NCCN(C)C)[C@H](C2)O3)[C@H](O)C(NC(=O)CN(C)C)[C@@H]1O (stereo partly shown)    1
2) CC1C=CC=CC=CC=CC=CC=CC=CC(OC2OC(C)C(O)C(NCc3ccc(N(C)C)cc3)C2O)CC2OC(O)(CC(O)C(O)CCC(O)CC(O)CC(O)CC(=O)OC(C)C(C)C1O)CC(O)C2C(=O)NCCCN(C)C (stereo not shown)    2
3) CC1C=CC=CC=CC=CC=CC=CC=CC(OC2OC(C)C(O)C(N)C2O)CC2OC(O)(CC(O)C(O)CCC(O)CC(O)CC(O)CC(=O)OC(C)C(C)C1O)CC(O)C2C(N)=O (stereo not shown)    2

[in] MIC Aspergillus niger ATCC 16404 lookup needed for CC1O[C@@H](O[C@H]2/C=C/C=C/C=C/C=C/C=C/C=C/C=C/[C@H](C)[C@@H](O)[C@@H](C)[C@H](C)OC(=O)C[C@H](O)C[C@H](O)C[C@H](O)CC[C@@H](O)[C@H](O)C[C@]3(O)C[C@H](O)[C@@H](C(=O)NCCN(C)C)[C@H](C2)O3)[C@H](O)C(NC(=O)c2ccc(CN)cc2)[C@@H]1O (stereo partly shown) , thanks.
[out] 2

----------
# System: Aspergillus niger ATCC 16404
# PROTOCOL_SUMMARY: Antifungal susceptibility study (1), broth microdilution MIC
# Format: cell-based
# STUDY_CONDITIONS: lowest concentration preventing any visible growth, read at 48 hours, 35° C., RPMI 1640 pH 7.0
Listed molecules paired with reported MIC Aspergillus niger ATCC 16404
Provide only the numeric value, understood in µg/mL.

Known MIC Aspergillus niger ATCC 16404 results, listed for orientation:
1. CC1O[C@@H](O[C@H]2/C=C/C=C/C=C/C=C/C=C/C=C/C=C/[C@H](C)[C@@H](O)[C@@H](C)[C@H](C)OC(=O)C[C@H](O)C[C@H](O)C[C@H](O)CC[C@@H](O)[C@H](O)C[C@]3(O)C[C@H](O)[C@@H](C)[C@H](C2)O3)[C@H](O)C(N)[C@@H]1O.N[C@@H](CC(=O)O)C(=O)O (stereo partly shown) [Compound 55]    2
2. CC1C=CC=CC=CC=CC=CC=CC=CC(OC2OC(C)C(O)C(NCC3(O)OCC(O)C(O)C3O)C2O)CC2OC(O)(CC(O)C(O)CCC(O)CC(O)CC(O)CC(=O)OC(C)C(C)C1O)CC(O)C2C(=O)O (single isomer, unassigned) [Compound 17]    2
3. CC1C=CC=CC=CC=CC=CC=CC=CC(OC2OC(C)C(O)C(NCC3(O)OCC(O)C(O)C3O)C2O)CC2OC(O)(CC(O)C(O)CCC(O)CC(O)CC(O)CC(=O)OC(C)C(C)C1O)CC(O)C2C(=O)O (single isomer, unassigned) [Compound 18]    2

[in] MIC Aspergillus niger ATCC 16404 lookup needed for C[C@@H]1[C@H](O)[C@@H](C)/C=C/C=C/C=C/C=C/C=C/C=C/C=C/[C@H](O[C@@H]2O[C@H](C)[C@@H](O)[C@H](N)[C@@H]2O)C[C@@H]2O[C@](O)(C[C@@H](O)C[C@@H](O)[C@H](O)CC[C@@H](O)C[C@@H](O)CC(=O)O[C@H]1C)C[C@H](O)[C@H]2C(=O)O [Amphotericin B, reference compound] , thanks.
[out] 1
